# Target Under Test: GP IIb IIIa (Homo sapiens, UniProt P05106+P08514)
# Construct: GP IIb IIIa was purified from outdated human platelets as previously described; from tissue; host or cells: outdated human platelets
# Experiment Notes: Fg/GP IIb IIIa solid phase ELISA (inhibition of GP IIb IIIa binding to immobilized fibrinogen)
# Protocol Conditions: four parameter fit; read-out: IC50 in GP IIb IIIa /Fg ELISA
IC50 values by entry

{"columns": ["Substance", "IC50"],
 "data": [
  ["N-3 decorsin: isoform which lacks the first three amino terminal residues of decorsin (LPQCQGDDQEKCLCNKDECPPGQCRFPRGDADPYCE)", "~1.5 nM"]
]}

Attention now shifts to the item below.
Form: substance = APRLPQCQGDDQEKCLCNKDECPPGQCRFPRGDADPYCE [decorsin, 39-amino acid RGD protein from the leech Macrobdella decora, GP IIb IIIa antagonist] ; IC50 = ~1.5 nM

====

IC50 values by entry
# Target Under Test: GP IIb IIIa (Homo sapiens, UniProt P05106+P08514)
# Construct: GP IIb IIIa was purified from outdated human platelets as previously described; from tissue; host or cells: outdated human platelets
# Experiment Notes: Fg/GP IIb IIIa solid phase ELISA (inhibition of GP IIb IIIa binding to immobilized fibrinogen)
# Protocol Conditions: Table VI; n in parenthesis; read-out: IC50 (nM) Fg/GP IIb-IIIa solid phase ELISA
Report the figure in nM without appending any unit label.

Below, each entry is followed by its recorded IC50 result.
{"columns": ["Biopolymer Sequence", "Target Under Test", "Recorded Endpoint", "Unit Text", "Val"],
 "data": [
  ["IYVRPTKDELLYCGEFRELGQPDKKCRC [ornatin D, ornatin isoform from P. ornata]", "GP IIb IIIa (Homo sapiens, UniProt P05106+P08514)", "IC50", "nM", 3.2],
  ["IYVRPTNDELNYCGDFRELGQPDKKCRCDGKPCTVGRCKFARGDNDDKCISA [ornatin B, ornatin isoform isolated from P. ornata]", "GP IIb IIIa (Homo sapiens, UniProt P05106+P08514)", "IC50", "nM", 3.5],
  ["IYVRPTKDELLYCGEFRELGQPDKKCRCDGKPCTVGRCNFARGDNDDKCI [ornatin E, ornatin isoform isolated from P. ornata]", "GP IIb IIIa (Homo sapiens, UniProt P05106+P08514)", "IC50", "nM", 4.5],
  ["IPQCRDVKESGQPNDKCRCNGKPCTVGKCTIARGDDNDKCT [ornatin A2, ornatin isoform isolated from P. ornata]", "GP IIb IIIa (Homo sapiens, UniProt P05106+P08514)", "IC50", "nM", 5.1]
]}

Attention now shifts to the item below.
Test item IYVRPTKDELLYCGEFRELGQPDKKCRCDGKPCTVGRCKFARGDADDKCTSA [ornatin C, ornatin isoform isolated from P. ornata] ; GP IIb IIIa (Homo sapiens, UniProt P05106+P08514); reported IC50 was 4.9

====

# Target Under Test: GP IIb IIIa (Homo sapiens, UniProt P05106+P08514)
# Construct: GP IIb IIIa was purified from outdated human platelets as previously described; from tissue; host or cells: outdated human platelets
# Experiment Notes: Fg/GP IIb IIIa solid phase ELISA (inhibition of GP IIb IIIa binding to immobilized fibrinogen)
# Protocol Conditions: Table III; half maximal dilution multiplied by total volume in ml
total units values by entry
Just the number, please.

Test item IYVRPTKDELLYCGEFRELGQPDKKCRC [ornatin D, ornatin isoform from P. ornata] ; GP IIb IIIa (Homo sapiens, UniProt P05106+P08514); reported total units was 516
